Data credit: PubChem BioAssay (NCI)

// values below are reported TGI
- Tested on: SF-295 CNS
- METHOD_SUMMARY: NCI tumour cell line growth inhibition, 48 h

COMPOUND: CCOC(=O)[CH-]C(=O)C12CC3CC(CC(C3)C1)C2.CCOC(=O)[CH-]C(=O)C12CC3CC(CC(C3)C1)C2.CC[O-].CC[O-].[Ti+4]
TGI: > 100 µM

COMPOUND: Cc1ccc(C(=O)N/N=C(\N=Nc2cccc([N+](=O)[O-])c2)c2ccc(N(CCC#N)CCC#N)cc2C)cc1
TGI: > 92 µM

COMPOUND: CCCCCCCCCCCC(=O)OCCOCCOCCOCCOCCOC(=O)CCCCCCCCCCC
TGI: > 100 µM

COMPOUND: COc1ccc2c(c1)C(=O)CCc1cc(OC)c(OC)c(OC)c1-2
TGI: > 100 µM

COMPOUND: CC(C)(C)c1cc([N+](=O)[O-])cc([N+](=O)[O-])c1O
TGI: > 10 µM

COMPOUND: Cc1cc(N(CC(C)Br)CC(C)Br)ccc1N=Nc1ccccc1C(=O)O (stereo not given)
TGI: 6.33 µM

COMPOUND: COc1ccc2nc(N/N=C/c3sccc3C)cc(C)c2c1
TGI: 21.7 µM

COMPOUND: CC(C)(C)C1CCC(=O)/C(=C/CC2CC(=O)N(c3ccccc3)C(=O)C2)C1 (stereo not given)
TGI: > 100 µM

COMPOUND: O=C(CSc1nnc(-c2ccccn2)s1)N/N=C/c1ccccc1
TGI: > 100 µM

COMPOUND: O=C1N/C(=C\[N+](=O)[O-])c2ccccc21
TGI: > 100 µM

COMPOUND: O=[N+]([O-])c1ccc(CSc2nncc3[nH]cnc23)cc1
TGI: > 100 µM

COMPOUND: Cc1ccc(C(=O)O)c(/C=C2\Cc3ccc(C)cc3C2=O)c1
TGI: > 100 µM

COMPOUND: C[C@]12CCc3sc(Nc4ccc(OC(F)(F)F)cc4)nc3C1=CC[C@@H]1[C@@H]2CC[C@]2(C)C(=O)CC[C@@H]12
TGI: 2.44 µM

COMPOUND: CC(C)CNc1nc(-c2ccccc2Cl)nc2ccccc12
TGI: 28.4 µM

COMPOUND: NC1=NN(c2ccccc2)C(=O)C1C(=O)CCC(=O)Nc1cccc(Cl)c1 (stereo not given)
TGI: > 100 µM

COMPOUND: CC(=O)C1C(c2ccccc2)C2(C)OC(=O)C(C#N)C12C (stereo not given)
TGI: > 100 µM

COMPOUND: COc1ccc2nc3cc(Cl)ccc3c(Sc3ccc([N+](=O)[O-])cc3C)c2c1
TGI: > 100 µM

COMPOUND: Cc1cn(-c2cc(NC(=O)c3cccc(C#Cc4cccc5[nH]nc(N)c45)c3)cc(C(F)(F)F)c2)cn1
TGI: 28.4 µM

COMPOUND: CCOC(=O)/C=C(\C(=O)OCC)n1cc(C)c(=O)n(Cc2cn(CCCCOC(C)=O)nn2)c1=O
TGI: 35.5 µM

COMPOUND: CCOC(=O)CCC(NC(=O)c1ccc(Nc2nc3ccc(C(F)(F)F)cc3nc2-c2ccccc2)cc1)C(=O)OCC (stereo not given)
TGI: > 100 µM

* * *

- Test system: HCT-15 colon
- METHOD_SUMMARY: NCI tumour cell line growth inhibition, 48 h
MEASUREMENT_NAME: TGI

COMPOUND: Oc1ccc2ccccc2c1N=Nc1cccc2ccccc12
MEASURED_RESULT: > 100 µM

COMPOUND: COc1ccc(/C=C2\N=C(N3CCCCC3)NC2=O)cc1
MEASURED_RESULT: > 100 µM

COMPOUND: COc1ccc2c(c1)NC1=C(C(=O)OC1)C2c1cc(OC)c(OC)c(OC)c1 (stereo unspecified)
MEASURED_RESULT: > 100 µM

COMPOUND: CS(=O)(=O)C(C#N)c1nc2ccccc2nc1Cl (stereo unspecified)
MEASURED_RESULT: > 100 µM

COMPOUND: CS(=O)(=O)Nc1ccc2ccccc2c1-c1c(NS(C)(=O)=O)ccc2ccccc12
MEASURED_RESULT: > 25 µM

COMPOUND: COc1cc2c(cc1OCCCCCCCCCCN1C(=O)c3cccc4cccc(c34)C1=O)N=C[C@@H]1CCCN1C2=O
MEASURED_RESULT: 16.9 µM
